// provenance: ChEMBL document CHEMBL5108078

Assay: Hemolytic activity in rabbit RBC incubated for 1 hr by microplate reader analysis
Assay type: toxicity, cell-based, Oryctolagus cuniculus, Erythrocyte
Details: rabbit red blood cells (erythrocytes)
Could you please report measured HC50 at 1 h for the items listed next?

CCCCNCCCCOc1ccc(C(C)(C)CC(C)(C)C)cc1Sc1cc(C(C)(C)CC(C)(C)C)ccc1OCCCCNCCCC 41.5 µg/mL

Report HC50 at 1 h for every entry below.
1. COC(=O)[C@H](CCCCN)NC(=O)COc1ccc(C(C)(C)CC(C)(C)C)cc1Sc1cc(C(C)(C)CC(C)(C)C)ccc1OCC(=O)N[C@@H](CCCCN)C(=O)OC
2. COC(=O)[C@H](CCCNC(=N)N)NC(=O)COc1ccc(C(C)(C)CC(C)(C)C)cc1Sc1cc(C(C)(C)CC(C)(C)C)ccc1O
3. CCCCCCNCCCCOc1ccc(C(C)(C)CC(C)(C)C)cc1Sc1cc(C(C)(C)CC(C)(C)C)ccc1OCCCCNCCCCCC
4. CC(C)(C)CC(C)(C)c1ccc(OCCCCNC(=N)N)c(Sc2cc(C(C)(C)CC(C)(C)C)ccc2OCCCCNC(=N)N)c1
5. Cc1cc(Sc2cc(C)cc(C(C)(C)C)c2OCC(=O)N[C@@H](CCCNC(=N)N)C(N)=O)c(OCC(=O)N[C@@H](CCCNC(=N)N)C(N)=O)c(C(C)(C)C)c1
6. COC(=O)[C@H](CCCNC(=N)N)NC(=O)[C@H](CCCNC(=N)N)NC(=O)COc1c(Sc2cc(C)cc(C(C)(C)C)c2OCC(=O)N[C@@H](CCCNC(=N)N)C(=O)N[C@@H](CCCNC(=N)N)C(=O)OC)cc(C)cc1C(C)(C)C
7. CCNCCCCOc1ccc(C(C)(C)CC(C)(C)C)cc1Sc1cc(C(C)(C)CC(C)(C)C)ccc1OCCCCNCC
8. CC(C)(C)CC(C)(C)c1ccc(O)c(Sc2cc(C(C)(C)CC(C)(C)C)ccc2OCC(=O)N[C@@H](CCCNC(=N)N)C(N)=O)c1

162 µg/mL
130 µg/mL
> 200 µg/mL
> 200 µg/mL
> 200 µg/mL
> 200 µg/mL
30.8 µg/mL
> 200 µg/mL

====

Assay: Cytotoxicity against mouse NCTC clone 929 cells assessed as cell viability at 50 ug/ml after 24 hrs by CCK8 assay
Format: toxicity, cell-based
Conditions: at 50 µg/mL, read-out: Activity
assay-readout: viability at 24 h, 50 ug/ml (%)
Numbers only, in %.

Entry COC(=O)[C@H](CCCNC(=N)N)NC(=O)COc1ccc(C(C)(C)CC(C)(C)C)cc1Sc1cc(C(C)(C)CC(C)(C)C)ccc1OCC(=O)N[C@@H](CCCNC(=N)N)C(=O)OC : reported viability at 24 h, 50 ug/ml = ? 53.1

====

System: Staphylococcus aureus
Experiment: Antibacterial activity against methicillin resistant Staphylococcus aureus NCTC10442 assessed as inhibition of bacterial growth incubated for 24 hrs by microbroth dilution method
Assay type: functional
assay-readout: MIC (µg/mL)
Numbers only, in µg/mL.

CN(C)CCCCOc1ccc(C(C)(C)CC(C)(C)C)cc1Sc1cc(C(C)(C)CC(C)(C)C)ccc1OCCCCN(C)C 1.56

// for each compound in input: emit MIC
1. CC(C)(C)CC(C)(C)c1ccc(OCCCCNC(=N)N)c(Sc2cc(C(C)(C)CC(C)(C)C)ccc2OCCCCNC(=N)N)c1
2. Cc1cc(Sc2cc(C)cc(C(C)(C)C)c2OCC(=O)N[C@@H](CCCNC(=N)N)C(N)=O)c(OCC(=O)N[C@@H](CCCNC(=N)N)C(N)=O)c(C(C)(C)C)c1
3. CC(C)(C)CC(C)(C)c1ccc(O)c(Sc2cc(C(C)(C)CC(C)(C)C)ccc2OCC(=O)N[C@@H](CCCNC(=N)N)C(N)=O)c1
4. CCCCNCCCCOc1ccc(C(C)(C)CC(C)(C)C)cc1Sc1cc(C(C)(C)CC(C)(C)C)ccc1OCCCCNCCCC
5. COC(=O)[C@H](CCCNC(=N)N)NC(=O)COc1ccc(C(C)(C)CC(C)(C)C)cc1Sc1cc(C(C)(C)CC(C)(C)C)ccc1OCC(=O)N[C@@H](CCCNC(=N)N)C(=O)OC
6. COC(=O)[C@H](CCCNC(=N)N)NC(=O)COc1ccc(C(C)(C)CC(C)(C)C)cc1Sc1cc(C(C)(C)CC(C)(C)C)ccc1O

[3.12, 12.5, 12.5, 6.25, 0.78, 1.56]
